// data source = PubChem BioAssay AID1063

# procedureDetails: Leishmania major promastigote growth inhibition, primary screen (AID 1063);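 also: promastigotes grown with compound for 44 hours at 28 °C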
# condition: Leishmania major promastigotes, resazurin fluorescence viability; at 10 µM; stronger effect = higher value
In all, about 200,000 compounds went through this assay and about 18,000 (9%) were called active. For the sample, actives were picked, then their nearest neighbours and some compounds at random.
inhibition by entry:
metricName: inhibition (%)

[[record]]
compound = "CCC(C)(C(=O)Nc1ccccc1C)N(C(=O)CNC(C)=O)c1ccc(C)cc1 (stereo not given)"
unitannotation = "%"
assayresult = -4.62

[[record]]
compound = "O=C(COC(=O)CCc1ccc(S(=O)(=O)N2CCOCC2)cc1)Nc1cccc(Cl)c1"
unitannotation = "%"
assayresult = -4.95

[[record]]
compound = "CCn1cc(C(=O)Nc2cc(C)ccc2C)c(=O)c2ccc(C)nc21"
unitannotation = "%"
assayresult = 1.39

[[record]]
compound = "CC(C)c1ccc(N2CCN(C(=O)c3ccccc3NC(=O)/C=C(\\C(=O)O)c3ccccc3)CC2)cc1"
unitannotation = "%"
assayresult = 100

[[record]]
compound = "Cc1ccc(S(=O)(=O)N(C)C)cc1NC(=O)COC(=O)C1COc2ccccc2O1 (stereo not given)"
unitannotation = "%"
assayresult = 4.18

[[record]]
compound = "N/C(=N\\OC(=O)CCCC(=O)O)c1ncc(C(F)(F)F)cc1Cl"
unitannotation = "%"
assayresult = -0.94

[[record]]
compound = "C=CCn1c(COc2ccc(F)cc2)nnc1SCC(=O)Nc1cccc(S(N)(=O)=O)c1"
unitannotation = "%"
assayresult = 1.1

[[record]]
compound = "O=C(CSc1nnc(-c2cccs2)n1Cc1ccccc1)N1CCc2ccccc2C1"
unitannotation = "%"
assayresult = 83.6

[[record]]
compound = "O=C(O)C1CC=CCC1C(=O)Nc1ccccc1C(=O)N1CCN(c2ccccc2)CC1 (stereo not given)"
unitannotation = "%"
assayresult = -4.97

[[record]]
compound = "CCCCCN(C(=O)NC(=O)Nc1cccc(C)c1C)S(C)(=O)=O"
unitannotation = "%"
assayresult = -14.4

